Assembled from different publications: pIC50 for UniProtKB P30530.
pIC50: −log10 of the molar value.
MEASURED_METRIC: pIC50

CHEMICAL_STRING	RECORDED_RESULT
CNS(=O)(=O)c1cncc(-c2cc([C@H]3CC[C@H](O)CC3)n3nc(N[C@@H](C)CC(F)(F)F)ncc23)c1	≥ 7.00
COC[C@H](C)Nc1ncc2c(-c3cnn(Cc4cn[nH]c4)c3)cc([C@H]3CC[C@H](O)CC3)n2n1	≥ 7.00
Nc1ncc(-c2cnn(C3CCCCC3)c2)cc1-c1nnc(-c2ccccc2)o1	5.00 to 6.00
C[C@@H](COC(F)F)Nc1ncc2c(-c3cnn(C(C)(C)C(=O)N4CC5(COC5)C4)c3)cc([C@H]3CC[C@H](O)CC3)n2n1	≥ 7.00
Nc1ncc(-c2cnn(C3CCCCC3)c2)cc1-c1ncc(-c2cccc(Cl)c2)o1	5.00 to 6.00
CNc1ncc2c(n1)N1CCN=C1C(c1ccc(C(=O)Nc3cc(C(F)(F)F)ccn3)cc1)=C2	5.00 to 7.00
